Values were extracted from the supplement of paper PMC10567573.

B1: TOR1AIP2 (parent)
chain: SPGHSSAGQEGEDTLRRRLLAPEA

- Variants of: B1
- MEASUREMENT NOTES: protein stability index of a GFP-peptide fusion (GPS, HEK-293T) (PSI 1-6); higher = more stable;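 further: lentivirally expressed fusions sorted by FACS into six bins by GFP to DsRed ratio, PSI derived from sequencing read proportions per bin multiplied by bin number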
- EXPERIMENTAL CONDITIONS: c terminus: a fixed tail appended
RESULT TYPE: protein stability index
# print the numeric value only

G8R : 4

Fill in protein stability index for record S5L 3.9

Identify protein stability index associated with the variant Q9V 3.98

Tell me measured protein stability index for E23H please. 4.09

Return the recorded protein stability index value; entry: D13G 4.1

Specify protein stability index for L15Q and stop. 4.98
